List of inhibition in vivo at 25 mg/kg values.
System: bFGF induced angiogenesis
Assay: Mouse corneal micropocket assay, bFGF pellets
Format: in vivo, mice
Details: Mus musculus, 120 h; dose 25 mg/kg once daily; 5 days after implantation
Description: Six to eight week old C57B 16 male mice were obtained from Jackson Laboratories, MA. The mice were anesthetized, and 0.4×0.4 mm pockets were made in the stroma of the mouse cornea adjacent to the limbus. Pellets containing 80 ng of either bFGF or VEGF were implanted in the pellets. […] The vascular response to the pellets was measured by maximal vessel length and number of clock hours of neovascularization 5 days after implantation of the bFGF pellets and 6 days after implantation of the VEGF pellets. […]
// note: answer is a bare numeric in %

Would you please look over these solved cases?
C[C@H](Cc1ccc(O)c(O)c1)[C@@H](C)Cc1ccc(O)c(O)c1 [NDGA, nordihydroguiaretic acid] :: 30
CC(C)Cc1ccc(C(C)C(=O)O)cc1 (stereo not shown) :: 6
CC1=C(CC(=O)O)c2cc(F)ccc2/C1=C\c1ccc([S+](C)[O-])cc1 (stereo not shown) :: 50

// switching to the query compound
Input line: GET /values?readout=inhibition in vivo at 25 mg/kg&system=bFGF induced angiogenesis&item= CSc1ccc(/C=C2/C(C)=C(CC(=O)O)c3cc(F)ccc32)cc1 [Sulindac sulfide, sulindac sulfide]
Output line: 31

Hello, the source for this data is patent US8039488B2, in case you need it.
